system tested: uterine OT receptors (Rattus norvegicus)
Construct: crude membrane preparation of uteri; from tissue; host or cells: uterus of DES-treated rats, crude membranes
Sequence (P70536 whole entry): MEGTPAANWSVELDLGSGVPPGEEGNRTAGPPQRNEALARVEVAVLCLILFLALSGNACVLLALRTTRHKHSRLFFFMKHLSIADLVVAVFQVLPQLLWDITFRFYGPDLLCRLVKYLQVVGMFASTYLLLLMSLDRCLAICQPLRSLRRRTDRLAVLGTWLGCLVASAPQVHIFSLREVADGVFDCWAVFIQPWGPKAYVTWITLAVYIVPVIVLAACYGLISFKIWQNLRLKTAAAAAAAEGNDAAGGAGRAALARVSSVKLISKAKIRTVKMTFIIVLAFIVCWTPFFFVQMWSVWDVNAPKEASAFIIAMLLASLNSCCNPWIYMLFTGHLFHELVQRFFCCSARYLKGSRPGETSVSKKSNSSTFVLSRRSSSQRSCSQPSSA
measurement notes: Radioligand binding: competition of [^3 H]oxytocin binding to rat uterine membranes
assay context: 1 nM [^3 H]OT, rat uterus membranes, 60 minutes, 22° C., pH 7.4; read-out: IC50
pIC50: −log10 of the molar value.
recorded metric: pIC50

Examples with their reported pIC50 follow.
> print(dat)
                                   compound  recorded.metric  value.reported
1  Cc1ccccc1N1CCN(C(=O)C2C3CCC(C)(C2NC(=O)C(N)CCS(C)(=O)=O)C3(C)C)CC1 (stereo not shown)            pIC50            7.82
2  Cc1ccccc1N1CCN(S(=O)(=O)CC23CCC(CC2NC(=O)[C@H](CCS(C)(=O)=O)NC(=O)OC(C)(C)C)C3(C)C)CC1 (stereo partly shown)            pIC50            8.11
3  Cc1ccccc1N1CCN(C(=O)C2C3CCC(C)(C2NC(=O)C(N)C(C)O)C3(C)C)CC1 (stereo not shown)            pIC50            8.44
4  Cc1ccccc1N1CCN(S(=O)(=O)C[C@]23CC[C@H](CC2=CCCl)C3(C)C)CC1            pIC50            5.96
5  Cc1ccccc1N1CCN(C(=O)C2C3CCC(C)(C2NC(=O)C(NC(=O)OC(C)(C)C)C(C)O)C3(C)C)CC1 (stereo not shown)            pIC50            6.80

I = Cc1ccccc1N1CCN(C(=O)C2(C)C(=O)C3(C)CCC2C3(C)C)CC1 (stereo not shown)
II = Cc1ccccc1N1CCN(S(=O)(=O)CC23CCC(CC2C(=O)NCCc2c[nH]cn2)C3(C)C)CC1 (stereo not shown)
Query block: Smaller pIC50 value? Options are I and II Refer to your chosen entry by its label in the reply.
Result block: I

Data provenance: patent US5686454A
